The origin of these recorded values is patent US20260098072A1.

- tested-target: human MC3R (Homo sapiens)
- Sequence (P41968 whole entry): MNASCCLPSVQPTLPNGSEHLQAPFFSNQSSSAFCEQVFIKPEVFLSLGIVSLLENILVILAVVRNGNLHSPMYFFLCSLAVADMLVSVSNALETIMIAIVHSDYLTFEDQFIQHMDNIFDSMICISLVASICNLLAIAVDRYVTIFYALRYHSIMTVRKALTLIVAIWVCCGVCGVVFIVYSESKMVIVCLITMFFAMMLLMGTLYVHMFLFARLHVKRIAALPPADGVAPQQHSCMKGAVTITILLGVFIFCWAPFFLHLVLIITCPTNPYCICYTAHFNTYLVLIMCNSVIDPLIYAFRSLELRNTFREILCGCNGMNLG
- experiment-description: cAMP accumulation assay (HTRF), antagonist activity at MC3R
- measurement-conditions: HEK293/CRE-luc/MC3R; estimated from dose-response curve
Positions of bridges follow the written chain, without caps; N, C: chain ends. Non-standard residues stand in square brackets, D forms with d. Residues, ends and D or L forms follow the SMILES beside them. d2Nal = N[C@H](Cc1ccc2ccccc2c1)C(=O)O; Nle = CCCC[C@H](N)C(=O)O
assay-metric: IC50

{"compound": "CCCC[C@H](NC(C)=O)C(=O)N[C@H]1CC(=O)NCCCC[C@@H](C(=O)N[C@@H](C(=O)N2CCC[C@@H]2C(N)=O)C(C)C)NC(=O)[C@H](Cc2c[nH]c3ccccc23)NC(=O)[C@H](CCCNC(=N)N)NC(=O)[C@@H](Cc2ccc3ccccc3c2)NC(=O)[C@H](Cc2c[nH]cn2)NC(=O)[C@@H]2CCCN2C1=O [Peptide D1] (Ac-[Nle]DPH[d2Nal]RWK[dV][dP]-NH2; lactam 2-8)", "IC50": "< 10 µM"}

--- query ---
Query CCCC[C@H](NC(C)=O)C(=O)N[C@H]1CC(=O)NCCCC[C@@H](C(=O)N2CCC[C@@H]2C(=O)N[C@@H](C(N)=O)C(C)C)NC(=O)[C@H](Cc2c[nH]c3ccccc23)NC(=O)[C@H](CCCNC(=N)N)NC(=O)[C@@H](Cc2ccc3ccccc3c2)NC(=O)[C@@H]2CCCN2C1=O [TCMCB02] (Ac-[Nle]DP[d2Nal]RWK[dP][dV]-NH2; lactam 2-7) yields IC50 of < 10 µM
